test: Particle size and PDI of lipid nanoparticles by dynamic light scattering; assay type: physicochemical; details: lipid nanoparticles with luciferase mRNA; ionizable lipid/cholesterol/DSPC/DMG-PEG2000 50/38.5/10/1.5 mol%
# reported Particle size (nm); entries follow
Your answer should be a plain number; it is taken to be in nm.

compound: CCCCCCCCCC(=O)OCC1(CCCCCN(CCO)CCCCCCCC(=O)OC(CCCCCCCC)CCCCCCCC)CC1 [14b]
Particle size (nm): 99.73
//
compound: CCCCCCCCCCC(=O)OCC(C)(C)CCCCCN(CCCCCCCC(=O)OC(CCCCCCCCC)CCCCCCCCC)C(=O)SCCCCN(C)C [40b]
Particle size (nm): 97.10
//
compound: CCCCCCCCCCOC(=O)CCCCC(C)(C)CCN(CCO)CCCCCCCC(=O)OCC(CCCCCCCC)CCCCCCCC [65a]
Particle size (nm): 95.88
//
compound: CCCCCCCCCOC(=O)CCC(C)(C)CCCCN(CCO)CCCCCCOC(=O)OCC(CCCCCCC)CCCCCCC [46a]
Particle size (nm): 110.83
//
compound: CCCCCCCCCCCOC(=O)CCCCCN(CCO)CCCCC(C)(C)CCC(=O)OC(CCCCCCCC)CCCCCCCC [62a]
Particle size (nm): 98.07

Provide one value: measured Particle size (nm) of CCCCCCCCCCCOC(=O)OCCCCCCN(CCO)CCCCCCC(C)(C)C(=O)OC(CCCCCCCCCC)CCCCCCCCCC [49a]
100.56

Provide one value: measured Particle size (nm) of CCCCCCCCCCC(=O)OCCCC(C)(C)CCCN(CCCO)CCCCCCCC(=O)OCCC(CCCCCCC)CCCCCCC [81b]
107.43

Provide one value: measured Particle size (nm) of CCCCCCCCCCOC(=O)CCCCC(C)(C)CCN(CCCCCCCC(=O)OC(CCCCCCCCC)CCCCCCCCC)C(=O)SCCCCN(C)C [60a]
92.74

Provide one value: measured Particle size (nm) of CCCCCCCCCC(=O)OCC(C)(C)CCCCCN(CCCCO)CCCCCCCC(=O)OC(CCCCCCCCC)CCCCCCCCC [52b]
105.97

Provide one value: measured Particle size (nm) of CCCCCCCCCCOC(=O)CCCCCN(CCO)CCCCCCC(C)(C)C(=O)OC(CCCCCCC)CCCCCCC [23a]
99.25

----------
assay: Encapsulation efficiency of lipid nanoparticles (Quant-it RiboGreen RNA Assay); type: physicochemical; conditions: lipid nanoparticles with luciferase mRNA
readout_kind: Encapsulation efficiency (%)
Your answer should be a plain number; it is taken to be in %.

compound: CCCCCCCCCCOC(=O)OCCCCCN(CCO)CCCCCCC(C)(C)C(=O)OC(CCCCCCCC)CCCCCCCC [31a]
units_of_measure: %
recorded_value: 86.08
--
compound: CCCCCCC#CCOC(=O)CCCCCCCN(CCO)CCCCCCC(C)(C)C(=O)OC(CCCCCCCC)CCCCCCCC [54a]
units_of_measure: %
recorded_value: 91.34
--
compound: CCCCCCCCC(CCCCCCCC)OC(=O)C(C)(C)CCCCCCN(CCO)CCCCCC(=O)OCCCCCCCCCC(C)C [21a]
units_of_measure: %
recorded_value: 88.37
--
compound: CCCCCCCCCC(=O)OCCCC(C)(C)CCCN(CCO)CCCCCCCCC(=O)OCC(CCCCCC)CCCCCC [111b]
units_of_measure: %
recorded_value: 63.26
--
compound: CCCCCCCCC(=O)OCCC(C)(C)CCCCCN(CCO)CCCCCCC(=O)OCC(CCCCCCCC)CCCCCCCC [105b]
units_of_measure: %
recorded_value: 94.38
--
compound: CCCCCCCCCC(=O)OCC1(CCCCCN(CCO)CCCCCCOC(=O)OCC(CCCCCCCC)CCCCCCCC)CC1 [34b]
units_of_measure: %
recorded_value: 97.61
--
compound: CCCCCCCC(CCCCCCC)CCOC(=O)OCCCCCCN(CCO)CCCCCC(C)(C)COC(=O)CCC(CCCCCC)CCCCCC [37b]
units_of_measure: %
recorded_value: 95.15
--
compound: CCCCCCCCCCCC(=O)OCC(C)(C)CCCCCN(CCCCO)CCCCCCCCC(=O)OCC(CCCCCCCC)CCCCCCCC [90b]
units_of_measure: %
recorded_value: 91.21
--
compound: CCCCCCCCCOC(=O)C(C)(C)CCCCCCN(CCO)CCCCCCOC(=O)OCCCC(CCCCC)CCCCC [42a]
units_of_measure: %
recorded_value: 95.54
--
compound: CCCCCCCCCOC(=O)CCCCCCCN(CCO)CCCCCC(C)(C)CC(=O)OC(CCCCCCCC)CCCCCCCC
units_of_measure: %
recorded_value: 89.64

Provide one value: measured Encapsulation efficiency (%) of CCCCCCCCCC(=O)OCC1(CCCCCN(CCO)CCCCCCCC(=O)OCC(CCCCCCC)CCCCCCC)CC1 [22b]
93.03

Provide one value: measured Encapsulation efficiency (%) of CCCCCCCCCOC(=O)CCCCCCCN(CCO)CCCC(C)(C)CCC(=O)OC(CCCCCCCC)CCCCCCCC [10a]
89.69

Provide one value: measured Encapsulation efficiency (%) of CCCCCCCCCC(=O)OCCC(C)(C)CCCCN(CCCCO)CCCCCCCC(=O)OCC(CCCCCCC)CCCCCCC [59b]
80.27

Provide one value: measured Encapsulation efficiency (%) of CCCCCCCCCC(=O)OCC(C)(C)CCCCCN(CCCO)CCCCCCC(=O)OCCC(CCCCCCC)CCCCCCC [77b]
95.88

Provide one value: measured Encapsulation efficiency (%) of CCCCCCCCCC(=O)OCC(C)(C)CCCCCN(CCCO)CCCCCCCC(=O)OC(CCCCCCCC)CCCCCCCC
80.17

----------
# reported Particle size (nm); entries follow
test: Particle size and PDI of lipid nanoparticles by dynamic light scattering; format: physicochemical; settings: lipid nanoparticles with luciferase mRNA; ionizable lipid/cholesterol/DSPC/DMG-PEG2000 50/38.5/10/1.5 mol%
Your answer should be a plain number; it is taken to be in nm.

In the examples that follow, each entry is paired with its recorded Particle size (nm).
compound: CCCCCCCCCC(=O)OCC(C)(C)CCCCCN(CCO)CCCCCCCC(=O)OC(CCCCCCCC)CCCCCCCC
units_of_measure: nm
Particle size (nm): 88.59
--
compound: CCCCCCCCCCOC(=O)CCCCCCCN(CCO)CCCCCC(C)(C)COC(=O)C(CCCCCCCC)CCCCCCCC [18b]
units_of_measure: nm
Particle size (nm): 100.46
--
compound: CCCCCCCCCCC(=O)OCC(C)(C)CCCCCN(CCCO)CCCCCCC(=O)OCC(CCCCCCCCC)CCCCCCCCC [85b]
units_of_measure: nm
Particle size (nm): 92.14
--
compound: CCCCCCCCCC(=O)OCCCC(C)(C)CCCN(CCCO)CCCCCCC(=O)OCC(CCCCCCCC)CCCCCCCC [82b]
units_of_measure: nm
Particle size (nm): 99.57
--
compound: CCCCCCCCCC(=O)OCCCC(C)(C)CCCN(CCO)CCCCCCC(=O)OCCCC(CCCCCC)CCCCCC [75b]
units_of_measure: nm
Particle size (nm): 91.60

Provide one value: measured Particle size (nm) of CCCCCCCCC(=O)OCCC(C)(C)CCCCCN(CCO)CCCCCCC(=O)OCC(CCCCCCCC)CCCCCCCC [105b]
89.73

Provide one value: measured Particle size (nm) of CCCCCCCCCCC(=O)OCC(C)(C)CCCCCN(CCCCCCCC(=O)OC(CCCCCCCCC)CCCCCCCCC)C(=O)SCCCN(C)C [39b]
102.67

Provide one value: measured Particle size (nm) of CCCCCCCCCC(=O)OCC(C)(C)CCCCCN(CCO)CCCCCCCC(=O)OCC(CCCCCCC)CCCCCCC [13b]
99.02

Provide one value: measured Particle size (nm) of CCCCCCCCCC(=O)OCC(C)(C)CCCCCN(CCO)CCCCCCC(=O)OCCC(CCCCCCC)CCCCCCC [68b]
88.33

Provide one value: measured Particle size (nm) of CCCCCCCCOC(=O)OCC(C)(C)CCCCCN(CCCCCCOC(=O)CC(CCCCCCCC)CCCCCCCC)C(=O)SCCCCN(C)C [50b]
98.36

Provide one value: measured Particle size (nm) of CCCCCCCCCC(=O)OCC(C)(C)CCCCCN(CCCCO)CCCCCCCC(=O)OC(CCCCCCCC)CCCCCCCC
102.32

----------
Assay: Encapsulation efficiency of lipid nanoparticles (Quant-it RiboGreen RNA Assay)
Format: physicochemical
Conditions: lipid nanoparticles with luciferase mRNA
Method: […] The particle size and particle size dispersity index (PDI) of the prepared lipid nanoparticles were measured using a Zetasizer Pro (purchased from Malvern Instruments Ltd) and a DynaPro NanoStar (purchased from Wyatt) dynamic light scattering instrument. […] This parameter was measured by the method of Quant-it™ RiboGreen RNA Assay (purchased from Invitrogen). […]
readout_kind: Encapsulation efficiency (%)
Your answer should be a plain number; it is taken to be in %.

molecule: CCCCCCCCCCCC(=O)OCC(C)(C)CCCCCN(CCO)CCCCCCCCC(=O)OCC(CCCCCCCC)CCCCCCCC [98b]
recorded_value: 93.04

molecule: CCCCCCCCCOC(=O)OCCCCCCCN(CCO)CCCCCC(C)(C)COC(=O)CC(CCCCCCC)CCCCCCC [29b]
recorded_value: 96.28

molecule: CCCCCCCC(CCCCCCC)COC(=O)CCCCCCCN(CCO)CCCCCC(C)(C)COC(=O)CC(CCCCCCC)CCCCCCC [65b]
recorded_value: 97.75

Provide one value: measured Encapsulation efficiency (%) of CCCCCCCCCCCOC(=O)OCCCCN(CCO)CCCCCCC(C)(C)C(=O)OCC(CCCCCCC)CCCCCCC [37a]
92.14

Provide one value: measured Encapsulation efficiency (%) of CCCCCCCCCC(=O)OCC1(CCCCCN(CCO)CCCCCCCC(=O)OC(CCCCCCCCC)CCCCCCCCC)CC1 [53b]
91.92

Provide one value: measured Encapsulation efficiency (%) of CCCCCCCCCCCC(=O)OCC(C)(C)CCCCCN(CCO)CCCCCCC(=O)OCC(CCCCCCCCCC)CCCCCCCCCC [97b]
93.79

Provide one value: measured Encapsulation efficiency (%) of CCCCCCCCCCCOC(=O)OCCCCN(CCO)CCCCCCC(C)(C)C(=O)OC(CCCCCCCC)CCCCCCCC [36a]
92.41

Provide one value: measured Encapsulation efficiency (%) of CCCCCCCCCC(=O)OCC1(CCCCCN(CCCCCCCC(=O)OCC(CCCCCCC)CCCCCCC)C(=O)SCCCCN(C)C)CC1 [44b]
97.45

The reported numbers originate from patent US12617752B2.
